- System: MDA-MB-435
Permitted responses: label 1 for active, label 0 for inactive

Solved cases below.
1. CC[C@H](Nc1ncnc2nc[nH]c12)c1nc2cccc(F)c2c(=O)n1-c1ccccc1    label 0
2. O=[N+]([O-])c1cc(Cl)c2[nH]c3c(Cl)cc([N+](=O)[O-])cc3c2c1    label 1

Query: What classification did COc1cccc(/C(C#N)=C/c2nc3c(N4CCOCC4)nc(Cl)nc3n2C)c1 end up with in this test?
Reply: label 0

* * *

- Tested on: MALME-3M melanoma
- assay.protocol: NCI tumour cell line growth inhibition, 48 h
metric.name: TGI (µM)
Hi! Could you send only the number? It should be in µM, unit omitted.

The following compounds have reported results that may help.
1) NS(=O)(=O)c1ccc(-n2nc3c(c2-c2ccc(Cl)cc2)Cc2ccccc2-3)cc1    14.7
2) O=S(=O)(NC1=NCCN1C(=S)SN1CCn2c1nsc2=S)c1cccc2ccccc12    57.4
3) O=[N+]([O-])c1ccc2c(c1)N([O-])C1(CCCCC1)[N+]2=O    28.7

Query: For the compound shown here, C=C1C(=O)OC2C/C(C)=C/CC/C(C)=C/CCC3(COC(C)=O)OC3CC12 (stereo unspecified) , give the reported TGI.
Reply: 25.7

Query: For the compound shown here, O=c1c2cc(F)ccc2sc2c(N3CCNCC3)nc3ccc(F)cc3c12 , give the reported TGI.
Reply: 3.06

Query: For the compound shown here, Cc1ncc(C(=O)Nc2ccc(CN3CCN(C)CC3)c(C(F)(F)F)c2)cc1C#Cc1cnc2cccnn12 , give the reported TGI.
Reply: 0.355

Query: For the compound shown here, Cc1ccc2c(c1)C(=O)c1nc(C)ccc1C2=O , give the reported TGI.
Reply: 24.7

Query: For the compound shown here, O=C(N/N=C/c1cc(Cl)cc(Cl)c1[O-])c1ccccc1O.O=C(N/N=C/c1cc(Cl)cc(Cl)c1[O-])c1ccccc1O.[Co+2] , give the reported TGI.
Reply: 16

Query: For the compound shown here, NC1=C(NC(=O)Cc2ccccc2F)C(=O)c2ccccc2C1=O , give the reported TGI.
Reply: 50.9

* * *

- System: KM20L2 colon
- assay.protocol: NCI tumour cell line growth inhibition, 48 h
metric.name: TGI

Query: For the compound shown here, CCC[CH2][Sn]([Cl])([Cl])[CH2]CCC , give the reported TGI.
Reply: 3.01 µM

* * *

- Test system: SNB-75 CNS
- assay.protocol: NCI tumour cell line growth inhibition, 48 h
metric.name: GI50

1) Cc1nc(N)nc2c1CCC(O)S2 (stereo not given)    11200 nM
2) COc1cc2nc(SCc3cc(OC)c(OC)c(OC)c3)n(Cc3ccccc3)c(=O)c2cc1OC    876 nM
3) O=c1c2cc(F)ccc2sc2c(N3CCNCC3)nc3ccc(F)cc3c12    1420 nM
4) COc1cc2c(c(OC)c1OC)-c1ncc3c(OC)c(OC)c(OC)cc3c1C2    > 100000 nM
5) CS(=O)(=O)CCNCc1cc(-c2cc3c(Nc4ccc(OCc5cccc(F)c5)c(Cl)c4)ncnc3s2)cs1    7900 nM
6) CCNc1cc(-c2cccc(OC(F)(F)F)c2)nc2ccc(N3CCCC3)cc12    1530 nM

Query: For the molecule shown here, COc1ccc(NC(=O)CSC2=C(Nc3cccc(Br)c3)C(=O)N(Cc3ccccc3)C2=O)cc1Cl , give the reported GI50.
Reply: > 100000 nM

Query: For the molecule shown here, COc1ccccc1C#Cc1ccccc1C#CCCCCO , give the reported GI50.
Reply: 12000 nM

Query: For the molecule shown here, C=CCn1c(C)nc2ccc(Nc3nc(Nc4ccc(F)cc4)nc4ccccc34)cc21 , give the reported GI50.
Reply: 1510 nM

Query: For the molecule shown here, COc1cc(F)c(F)c(Nc2ccc(I)cc2F)c1NS(=O)(=O)C1(C[C@H](O)CO)CC1 , give the reported GI50.
Reply: 2620 nM

All figures here come from PubChem BioAssay (NCI).
